B1: BTBD1 (parent)
chain: FVLGKGRGAAAAGGPQRIPAHRFV

Variants of: B1
Experiment: protein stability index of a GFP-peptide fusion (GPS, HEK-293T) (PSI 1-6); higher = more stable;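 further: lentivirally expressed fusions sorted by FACS into six bins by GFP to DsRed ratio, PSI derived from sequencing read proportions per bin multiplied by bin number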
Settings: c terminus: a fixed tail appended
The entries below are paired with their reported protein stability index.
Form field (numeric): enter value without unit.

>  <changes>
G13M

>  <reported-measurement>
2.07

$$$$

Which protein stability index reading was recorded for the variant G8F ?
1.5

Which protein stability index reading was recorded for the variant G6T ?
1.61

Which protein stability index reading was recorded for the variant L3M ?
1.92

Which protein stability index reading was recorded for the variant A11D ?
1.14

Which protein stability index reading was recorded for the variant G6L ?
2.69

Which protein stability index reading was recorded for the variant A20M ?
2.09

Which protein stability index reading was recorded for the variant H21P ?
1.97

Which protein stability index reading was recorded for the variant G4F ?
2.27

Which protein stability index reading was recorded for the variant P15R ?
1.99

Which protein stability index reading was recorded for the variant H21N ?
1.88
